# AKT1 (WT) t1/2 per entry
Assayed System: AKT1 WT (Homo sapiens (Human), UniProt P31749)
Sequence (P31749 2-480): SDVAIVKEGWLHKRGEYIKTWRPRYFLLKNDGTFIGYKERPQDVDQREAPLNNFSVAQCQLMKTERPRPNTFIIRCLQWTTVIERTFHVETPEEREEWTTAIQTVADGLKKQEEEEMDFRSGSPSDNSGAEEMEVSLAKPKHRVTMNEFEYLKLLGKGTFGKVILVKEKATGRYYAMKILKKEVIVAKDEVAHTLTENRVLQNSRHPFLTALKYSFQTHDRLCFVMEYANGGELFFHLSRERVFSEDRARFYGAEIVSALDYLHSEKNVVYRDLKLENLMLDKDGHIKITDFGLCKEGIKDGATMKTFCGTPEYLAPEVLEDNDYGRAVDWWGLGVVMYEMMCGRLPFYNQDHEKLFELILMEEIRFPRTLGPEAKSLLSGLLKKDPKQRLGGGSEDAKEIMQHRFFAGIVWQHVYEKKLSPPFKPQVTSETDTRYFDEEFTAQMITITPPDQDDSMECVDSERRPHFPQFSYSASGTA
Assay Notes: Dissociation rate by intact protein LCMS after ARQ092 chase
Format: binding
Run Parameters: compound 1.5 μM, 2 hours at 37° C., then ARQ092 50 μM
Property Label: AKT1 (WT) t1/2 (min)

compound="Nc1ncccc1-c1nc2ccc(-c3ccccc3)nc2n1-c1ccc(C2(NC(=O)Cc3ccc(C=O)c(O)c3F)CC2)cc1 [Compound 31]" property_label="AKT1 (WT) t1/2" unit_symbol=min experimental_value=85.9
compound="Nc1ncccc1-c1nc2ccc(-c3ccccc3)nc2n1-c1ccc(CNC(=O)c2ccc(O)c(C=O)c2)cc1 [Compound 73]" property_label="AKT1 (WT) t1/2" unit_symbol=min experimental_value=25
compound="Nc1ncccc1-c1nc2ccc(-c3ccccc3)nc2n1-c1ccc(CNC(=O)Cc2ccc(C=O)c(O)c2F)cc1 [Compound 94]" property_label="AKT1 (WT) t1/2" unit_symbol=min experimental_value=24.2
